TARGET_OR_SYSTEM: C-C chemokine receptor type 6 (Homo sapiens) (UniProt P51684)
ASSAY_METHOD_TEXT: potency against CXCR6 with APJ panel – cell-based, beta-arrestin, DiscoveRx, uHTS hits, dose response (AID 624129)
STUDY_CONDITIONS: CXCR6 beta-arrestin (DiscoveRx) antagonist cell assay, CCR6, dose range 1, mean IC50 across replicates
PROPERTY_LABEL: IC50 (µM)
Use µM as the unit, but write only the number.

O=C(CSc1cccc2cccnc12)N/N=C/c1cccnc1 : 5.05
Oc1c(I)cc(Cl)c2cccnc12 : 6.44
O=C(Nc1ccccc1Cl)/C(Cl)=C(\Cl)S(=O)c1ccccc1 (stereo unspecified) : 8.32
C=C1CC(COc2cc(=O)oc3ccccc23)(c2ccccc2)OC1=O (stereo unspecified) : 6.81

For reference, reported IC50 for "CC1(C)CC(=O)C2=C(C1)OC1=C(C(=O)CC(C)(C)C1)C2c1ccc(O)cc1O" stands at 5.44
